Origin of measurements: ChEMBL document CHEMBL5365420

Record form. Attribute: pIC50. Fill in for each entry.
# pIC50 is unitless: minus log10 of the molar concentration; print number only

Bench note, Metallo-beta-lactamase type 2 (Bacteria, UniProt C7C422): O=C(O)c1ccc2cccc(NS(=O)(=O)c3ccccc3Cl)c2n1 , pIC50 reads 6.36

Bench note, Metallo-beta-lactamase type 2 (Bacteria, UniProt C7C422): O=C(NOCc1ccccc1)c1ccccn1 , pIC50 reads 3.28

Bench note, Metallo-beta-lactamase type 2 (Bacteria, UniProt C7C422): CS(=O)(=O)Nc1cc(Cl)c(Cl)c2ccc(C(=O)O)nc12 , pIC50 reads 6.02

Bench note, Metallo-beta-lactamase type 2 (Bacteria, UniProt C7C422): O=C(O)c1ccc2c(Br)cc(Br)c(O)c2n1 , pIC50 reads 6.34

Bench note, Metallo-beta-lactamase type 2 (Bacteria, UniProt C7C422): COC(=O)c1ccc2cccc(NS(=O)(=O)c3ccc(C(F)(F)F)cc3)c2n1 , pIC50 reads 6.12

Bench note, Metallo-beta-lactamase type 2 (Bacteria, UniProt C7C422): O=C(NOCc1ccccc1)c1ccc2c(Br)cc(Br)c(O)c2n1 , pIC50 reads 5.83

Bench note, Metallo-beta-lactamase type 2 (Bacteria, UniProt C7C422): O=C(O)c1cc(-c2cccc(F)c2)c2cccc(NS(=O)(=O)c3ccccn3)c2n1 , pIC50 reads 6.43

Bench note, Metallo-beta-lactamase type 2 (Bacteria, UniProt C7C422): O=C(O)c1cc(Cl)c2cccc(NS(=O)(=O)c3ccccn3)c2n1 , pIC50 reads 6.55

Bench note, Metallo-beta-lactamase type 2 (Bacteria, UniProt C7C422): O=C(O)c1ccccn1 , pIC50 reads 3.52

Bench note, Metallo-beta-lactamase type 2 (Bacteria, UniProt C7C422): O=C(O)c1ccc2c(I)cc(I)c(O)c2n1 , pIC50 reads 6.52

Bench note, Metallo-beta-lactamase type 2 (Bacteria, UniProt C7C422): Nc1cccc(-c2cc(C(=O)O)nc3c(NS(=O)(=O)c4ccccn4)cccc23)c1 , pIC50 reads 6.60

Bench note, Metallo-beta-lactamase type 2 (Bacteria, UniProt C7C422): O=C(O)c1ccc2ccc3c(c2n1)NS(=O)(=O)c1ccc(C(F)(F)F)cc1-3 , pIC50 reads 6.39

Bench note, Metallo-beta-lactamase type 2 (Bacteria, UniProt C7C422): O=C(O)c1cccc(C(=O)O)n1 , pIC50 reads 5.15

Bench note, Metallo-beta-lactamase type 2 (Bacteria, UniProt C7C422): Cc1ccc(S(=O)(=O)Nc2cccc3ccc(C(=O)O)nc23)cc1 , pIC50 reads 5.85

Bench note, Metallo-beta-lactamase type 2 (Bacteria, UniProt C7C422): CONC(=O)c1ccc2cccc(O)c2n1 , pIC50 reads 4.86

Bench note, Metallo-beta-lactamase type 2 (Bacteria, UniProt C7C422): CS(=O)(=O)Nc1cccc2ccc(C(=O)O)nc12 , pIC50 reads 5.79

Bench note, Metallo-beta-lactamase type 2 (Bacteria, UniProt C7C422): O=C(O)c1ccc2cccc(NS(=O)(=O)c3ccccn3)c2n1 , pIC50 reads 6.54

Bench note, Metallo-beta-lactamase type 2 (Bacteria, UniProt C7C422): O=C(O)c1ccc2cccc(NS(=O)(=O)c3ccccc3)c2n1 , pIC50 reads 6.15

Bench note, Metallo-beta-lactamase type 2 (Bacteria, UniProt C7C422): O=C(O)c1ccc2c(Cl)cc(Cl)c(O)c2n1 , pIC50 reads 6.27

Bench note, Metallo-beta-lactamase type 2 (Bacteria, UniProt C7C422): CS(=O)(=O)Nc1cccc2c(Cl)cc(C(=O)O)nc12 , pIC50 reads 6.00

Bench note, Metallo-beta-lactamase type 2 (Bacteria, UniProt C7C422): CONC(=O)c1cccc(C(=O)O)n1 , pIC50 reads 4.56
